Study target: p7 (5a) protein (Hepatitis C virus genotype 5a (Hepacivirus hominis), UniProt O39928, A759S/C749A/C774T/C791S/T748G)
Sequence (O39928 748-810 T748G/C749A/A759S/C774T/C791S): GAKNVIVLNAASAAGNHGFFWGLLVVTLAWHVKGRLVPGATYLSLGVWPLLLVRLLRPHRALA
Run description: NMR titration (2D 1H-15N TROSY-HSQC chemical shift perturbation) for Kd
Assay type: binding
Settings: read-out: Kd GT5a
Attribute measured: Kd (µM)
API: value field is a number in µM; no unit string.

Fill in: Kd of NC(CNC(=O)CCOCCC(=O)NCC(N)C12CC3CC(CC(C3)C1)C2)C12CC3CC(CC(C3)C1)C2 (centres unmarked) is ___
43

Kindly review the next compound as well.
Fill in: Kd of CC(N)C12CC3CC(CC(C3)C1)C2 (centres unmarked) [Rimantadine, reference compound] is ___
98

----------
Study target: p7 (5a) protein (Hepatitis C virus genotype 5a (Hepacivirus hominis), UniProt O39928, A759S/C749A/C774T/C791S/T748G)
Run description: NMR titration (2D 1H-15N TROSY-HSQC chemical shift perturbation) for Kd
Assay type: binding
Settings: apparent Kd from chemical shift changes of Val7 or Leu8; 0.1 mM 15N-p7 (5a) in 20 mM DPC, 30 °C; read-out: Kd GT5a
Entries annotated with measured pKd
Just the number, please; pKd means minus log10 of the concentration in mol/L.

Example cases with answers are listed next.
Fill in: pKd of CNC(=O)C(NC)C12CC3CC(CC(C3)C1)C2 (centres unmarked) [ARD9] is ___
3.38

Would you kindly repeat that for CNC(C(N)=O)C12CC3CC(CC(C3)C1)C2 (centres unmarked) [ARD8] ?
3.15

Would you kindly repeat that for Cc1ccc(CNCC2(CO)C3CC4CC(C3)CC2C4)cn1 (centres unmarked) [ARD100] ?
3.97

Would you kindly repeat that for CNC(CO)C12CC3CC(CC(C3)C1)C2 (centres unmarked) [ARD6] ?
3.46

Would you kindly repeat that for Oc1ccc(CNC23CC4CC(CC(C4)C2)C3)c(O)c1 [ARD89] ?
3.95

Would you kindly repeat that for OCC1(CNCc2cc(C3CC3)on2)C2CC3CC(C2)CC1C3 (centres unmarked) [ARD101] ?
3.98

Would you kindly repeat that for CCNC(C)C12CC3CC(CC(C3)C1)C2 (centres unmarked) [ARD1] ?
3.31

Kindly review the next molecule as well.
Fill in: pKd of Cc1cc(CNCC2(CO)C3CC4CC(C3)CC2C4)ccn1 (centres unmarked) [ARD99] is ___
3.07

----------
Entries annotated with measured CC50 at 12 h
Run description: CellTiter-Glo cell viability and cytotoxicity assay
Settings: human, Huh7.5.1 cells

Fill in: CC50 at 12 h of CC1(NCc2nnc(-c3cc(O)cc(O)c3)[nH]2)C2CC3CC(C2)CC1C3 (centres unmarked) is ___
> 100 µM

Kindly review the next molecule as well.
Fill in: CC50 at 12 h of CC(N)C12CC3CC(CC(C3)C1)C2 (centres unmarked) [Rimantadine, reference compound] is ___
> 100 µM

----------
Study target: p7 (5a) protein (Hepatitis C virus genotype 5a (Hepacivirus hominis), UniProt O39928, A759S/C749A/C774T/C791S/T748G)
Run description: NMR titration (2D 1H-15N TROSY-HSQC chemical shift perturbation) for Kd
Type: binding
Settings: apparent Kd from chemical shift changes of Val7 or Leu8; 0.1 mM 15N-p7 (5a) in 20 mM DPC, 30 °C; read-out: Kd GT5a
Entries annotated with measured Kd
API: value field is a number in µM; no unit string.

Example cases with answers are listed next.
Fill in: Kd of NC(CNC(=O)CCOCCOCCOCCOCCOCCOCCC(=O)NCC(N)C12CC3CC(CC(C3)C1)C2)C12CC3CC(CC(C3)C1)C2 (centres unmarked) is ___
70

Would you kindly repeat that for OCC1(CNCc2cc(-c3ccccc3)on2)C2CC3CC(C2)CC1C3 (centres unmarked) ?
102

Would you kindly repeat that for NC(CNC(=O)CCOCCOCCOCCOCCC(=O)NCC(N)C12CC3CC(CC(C3)C1)C2)C12CC3CC(CC(C3)C1)C2 (centres unmarked) ?
81

Would you kindly repeat that for NC(C(F)F)C12CC3CC(CC(C3)C1)C2 (centres unmarked) ?
2460

Would you kindly repeat that for CC1(NCc2nnc(-c3cc(O)cc(O)c3)[nH]2)C2CC3CC(C2)CC1C3 (centres unmarked) ?
5

Would you kindly repeat that for NC(CNC(=O)CCOCCOCCOCCC(=O)NCC(N)C12CC3CC(CC(C3)C1)C2)C12CC3CC(CC(C3)C1)C2 (centres unmarked) ?
102

Would you kindly repeat that for CCC(NC)C12CC3CC(CC(C3)C1)C2 (centres unmarked) ?
334

Further cases:
Fill in: Kd of NC(CNC(=O)CCOCCOCCOCCOCCOCCOCCOCCC(=O)NCC(N)C12CC3CC(CC(C3)C1)C2)C12CC3CC(CC(C3)C1)C2 (centres unmarked) is ___
58

The reported measurements were obtained from paper PMC7961618.
